target: UniProt:P23977
Sequence (P23977 whole entry): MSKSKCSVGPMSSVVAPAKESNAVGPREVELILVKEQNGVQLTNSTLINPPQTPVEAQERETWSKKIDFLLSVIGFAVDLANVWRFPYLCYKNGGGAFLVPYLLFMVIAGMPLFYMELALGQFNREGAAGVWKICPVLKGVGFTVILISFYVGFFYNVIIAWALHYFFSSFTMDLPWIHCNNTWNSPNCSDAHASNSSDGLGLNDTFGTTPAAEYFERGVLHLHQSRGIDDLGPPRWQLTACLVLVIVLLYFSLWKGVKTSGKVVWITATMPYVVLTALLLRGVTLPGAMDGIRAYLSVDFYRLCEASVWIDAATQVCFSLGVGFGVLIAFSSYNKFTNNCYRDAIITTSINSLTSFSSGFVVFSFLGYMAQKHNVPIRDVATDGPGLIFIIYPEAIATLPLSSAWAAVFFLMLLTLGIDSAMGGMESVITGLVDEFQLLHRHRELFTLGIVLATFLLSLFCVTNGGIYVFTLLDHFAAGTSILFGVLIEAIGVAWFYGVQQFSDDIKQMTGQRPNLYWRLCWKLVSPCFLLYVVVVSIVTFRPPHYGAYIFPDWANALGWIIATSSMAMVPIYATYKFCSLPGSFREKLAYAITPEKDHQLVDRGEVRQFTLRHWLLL
Observed Property: pKi
Value format note: pKi is -log10 of concentration (mol/L); just state the number.

OC1(c2ccc(Cl)cc2)c2ccccc2C2=NCCN21 (centres undefined)	7.35
N#Cc1cccc(OC(c2ccccc2)C2CCNCC2)c1 (single isomer, unassigned; (-))	6.96
Fc1ccccc1OC(c1ccccc1)C1CCNCC1 (single isomer, unassigned; (+))	6.28

So what does the record say about pKi for Fc1cccc(OC(c2ccccc2)C2CCNCC2)c1 (stereo in doubt; (+)-15j) ?
6.79

* * *

target: Sodium-dependent serotonin transporter (Rattus norvegicus); assay: Binding affinity against serotonin transporter (SERT) by displacement of [3H]paroxetine in male wistar rat
pIC50: −log10 of the molar value.
Observed Property: pIC50

# query: pIC50 of entry Fc1ccccc1OC(CCN1CCN(c2nsc3ccccc23)CC1)c1ccccc1 (stereo unspecified)
< 6.00

* * *

molecular target: 5-hydroxytryptamine receptor 2A (Rattus norvegicus); test: Binding affinity against 5-hydroxytryptamine 2A receptor by displacement of [3H]-ketanserin from rat prefrontal cerebral cortex mambranes; assay type: tissue-based, Frontal cortex
Sequence (P14842 whole entry): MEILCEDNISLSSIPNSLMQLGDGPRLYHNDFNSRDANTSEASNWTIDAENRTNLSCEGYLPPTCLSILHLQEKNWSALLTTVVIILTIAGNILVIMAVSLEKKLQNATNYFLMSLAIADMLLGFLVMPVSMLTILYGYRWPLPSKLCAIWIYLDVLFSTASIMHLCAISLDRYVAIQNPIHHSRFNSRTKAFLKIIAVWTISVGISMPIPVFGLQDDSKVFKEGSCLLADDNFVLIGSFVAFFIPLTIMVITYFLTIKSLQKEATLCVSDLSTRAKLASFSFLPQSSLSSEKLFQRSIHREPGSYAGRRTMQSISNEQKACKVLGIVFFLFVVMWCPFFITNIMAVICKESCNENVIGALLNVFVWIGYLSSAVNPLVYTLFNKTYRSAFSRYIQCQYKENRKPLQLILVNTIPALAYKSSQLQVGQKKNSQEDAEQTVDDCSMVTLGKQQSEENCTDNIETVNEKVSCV
Observed Property: IC50

These recorded examples may help you get a feel for the data.
N#Cc1ccc(OC(c2ccccc2)C2CCNCC2)cc1Cl (stereo not drawn)	> 1 µM
Fc1ccc(OC(c2ccc(Cl)cc2)C2CCNCC2)cc1 (stereo not drawn)	> 1 µM
Fc1ccc(OC(c2ccccc2)C2CCNCC2)cc1 (single isomer, unassigned; (-))	> 1 µM
Fc1cccc(C(Oc2ccccc2F)C2CCNCC2)c1 (single isomer, unassigned; (+))	> 1 µM
Clc1cccc(OC(c2ccccc2)C2CCNCC2)c1 (stereo in doubt; 15l)	> 1 µM
c1ccc(-c2ccc(OC(c3ccccc3)C3CCNCC3)cc2)cc1 (stereo not drawn)	> 1 µM
Cc1ccc(OC(CCN2CCc3ccccc3C2)c2ccccc2)cc1 (stereo not drawn)	> 1 µM
O=[N+]([O-])c1ccc(OC(c2ccccc2)C2CCNCC2)cc1 (single isomer, unassigned; (-))	> 1 µM
FC(F)(F)c1ccccc1OC(c1ccccc1)C1CCNCC1 (stereo not drawn)	> 1 µM
Fc1cccc(OC(c2ccccc2)C2CCNCC2)c1 (stereo in doubt; (-)-15j)	> 1 µM

Looking for the measured IC50 of Fc1cc(F)cc(OC(c2ccccc2)C2CCNCC2)c1 (stereo in doubt; (-)-15aj) , can you help?
> 1 µM

Request: Cc1ccc(OC(c2ccc(F)cc2)C2CCCNC2)cc1 (stereo not drawn)
> 1 µM

Same lookup for Fc1cccc(OC(c2ccccc2)C2CCNCC2)c1 (stereo in doubt; 15j) , please.
> 1 µM

Field entry: FC(F)(F)c1ccc(OC(c2ccccc2)C2CCNCC2)cc1 (stereo not drawn)
> 1 µM

Repeat for the following molecule: Fc1ccc(C(Oc2ccc(Cl)c(Cl)c2)C2CCCNC2)cc1 (stereo not drawn)
> 1 µM

Would you mind doing Fc1ccc(OC(c2ccccc2)C2CCNCC2)cc1 (stereo in doubt; (+)-15p) as well?
> 1 µM

Another molecule to check: Oc1cc(F)cc(OC(c2ccccc2)C2CCNCC2)c1 (stereo not drawn)
> 1 µM

Queued: CCCN(CCC)C1CCc2cccc(O)c2C1 (stereo not drawn)
> 1 µM

* * *

target: Sodium-dependent serotonin transporter (Rattus norvegicus, UniProt P31652)
Sequence (P31652 whole entry): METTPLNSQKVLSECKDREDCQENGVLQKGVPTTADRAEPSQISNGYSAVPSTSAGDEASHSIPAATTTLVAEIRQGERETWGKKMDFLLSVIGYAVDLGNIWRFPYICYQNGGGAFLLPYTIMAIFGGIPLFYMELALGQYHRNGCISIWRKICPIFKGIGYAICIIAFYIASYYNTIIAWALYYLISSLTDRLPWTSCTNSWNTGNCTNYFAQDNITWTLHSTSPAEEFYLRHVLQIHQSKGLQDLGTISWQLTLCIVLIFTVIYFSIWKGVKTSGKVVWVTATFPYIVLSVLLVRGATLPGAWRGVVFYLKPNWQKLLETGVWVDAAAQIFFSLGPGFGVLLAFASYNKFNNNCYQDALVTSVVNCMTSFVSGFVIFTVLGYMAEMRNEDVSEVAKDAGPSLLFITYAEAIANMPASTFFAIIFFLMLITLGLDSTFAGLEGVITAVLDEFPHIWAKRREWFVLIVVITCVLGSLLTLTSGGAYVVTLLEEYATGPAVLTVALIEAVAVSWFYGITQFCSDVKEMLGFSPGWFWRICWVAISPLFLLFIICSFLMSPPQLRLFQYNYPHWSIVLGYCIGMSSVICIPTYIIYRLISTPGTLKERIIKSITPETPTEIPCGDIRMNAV
We begin with a simple list: items and their reported log10 of Ki.
Please be aware that the numbers have been log10-transformed from Ki in nM.

In the examples that follow, each entry is paired with its recorded log10 of Ki.
N#Cc1ccc(OC(CC2CCNCC2)c2ccc(F)cc2)cc1 (stereo not given)	1.23
FC(F)(F)c1cccc(OC(c2ccccc2)C2CCNCC2)c1 (stereo not given)	0.95
O=[N+]([O-])c1ccc(OC(c2ccccc2)C2CCNCC2)cc1 (stereo in doubt; 15m)	0.38
O=[N+]([O-])c1ccc(OC(c2ccccc2)C2CCNCC2)cc1 (single isomer, unassigned; (-))	-0.22
Fc1cc(F)cc(OC(c2ccccc2)C2CCNCC2)c1 (stereo in doubt; 15aj)	0.53

GET /values?readout=log10 of Ki&item= Fc1cccc(C(Oc2ccccc2F)C2CCNCC2)c1 (single isomer, unassigned; (-))
0.63

Okay, and N#Cc1ccccc1OC(c1ccccc1)C1CCNCC1 (stereo not given) ?
2.02

Try this compound next: Fc1cc(F)cc(OC(c2ccccc2)C2CCNCC2)c1 (stereo in doubt; (+)-15aj)
0.85

Same read-out for Fc1cccc(C(Oc2ccccc2F)C2CCNCC2)c1 (stereo in doubt; 15t) ?
0.97

# iterate: FC(F)(F)c1ccc(OC(c2ccccc2)C2CCNCC2)cc1 (stereo not given)
1.23

Also Fc1ccc(C(Oc2ccc(Cl)cc2)C2CCCNC2)cc1 (stereo not given) ?
1.14

Also, Clc1ccc(OC(c2ccccc2)C2CCNCC2)cc1Cl (stereo not given) please.
1.00

Same read-out for Fc1ccc(OC(c2ccccc2)C2CCNCC2)cc1 (stereo in doubt; 15p) ?
0.04

Now the compound Fc1ccc(OC(c2ccc(F)cc2)C2CCNCC2)cc1 (stereo not given)
-0.05

Next: Cc1c(Cl)cccc1OC(c1ccccc1)C1CCNCC1 (stereo not given)
1.09
